pIC50: −log10 of the molar value.
Note to self: these molecules have pIC50 reported for CK1ε (Homo sapiens (Human)) in various publications.
Quick rule for you: pIC50 at 8 or higher means 1.0, lower means 0.0.

Worked examples, 4 molecules total:
Cc1onc(-c2ccccc2)c1C(=O)Nc1cn2nc(-c3c(-c4ccc(F)cc4)nc4ccccn34)ccc2n1; 0.0
Cc1nc(-c2ccc(F)cc2)c(-c2ccc3nc(NC(=O)c4cnc[nH]4)cn3n2)n1C; 0.0
O=C(Nc1cn2nc(-c3c(-c4ccc(F)cc4)ncn3C3CCN(C(=O)c4ccsn4)CC3)ccc2n1)c1ccnc(F)c1; 1.0
Cc1nc(C(F)(F)F)ccc1C(=O)Nc1cn2nc(-c3cn(C)nc3-c3ccc(F)cc3)ccc2n1; 0.0

Q: hey, is pIC50 for this one >= 8? `N#Cc1c(-c2cccc(F)c2)c(C(N)=O)c2n1CCN(C(=O)NCCCC(F)(F)F)C2`
Ans: 1.0

Q: // inclusive: pIC50 at least 8? input: `CC(C)(C)NC(=O)N1CCn2c(c(C(N)=O)c(-c3ccc4ccccc4c3)c2C2CC2)C1`
Ans: 0.0

====

// note: IC50 values for CK1ε (Homo sapiens (Human), UniProt P49674) were reported in different studies
Give a bare numeral; the unit nM is implied.

Cc1cc(C)c(-c2cccnc2)cc1C(=O)Nc1cn2nc(-c3c(-c4ccc(F)cc4)nc(C)n3C)ccc2n1; 7.47
CC(C)(C)NC(=O)N1CCn2c(c(C(N)=O)c(-c3ccccc3F)c2C2CC2)C1; 12
O=C(Nc1cn2nc(-c3c(-c4ccccc4)ncn3CC(F)F)ccc2n1)c1ccnc(F)c1; 5.96
Cc1nc(-c2ccc(F)cc2)c(-c2ccc3nc(NC(=O)c4coc(-c5ccncc5)n4)cn3n2)n1C; 48.5
Cn1cc(-c2ccc3nc(NC(=O)c4ccc(OC(F)F)cc4F)cn3n2)c(-c2ccc(F)cc2)n1; 40.9

Q: State measured IC50 of the compound `Cc1nc(-c2ccc(F)cc2)c(-c2ccc3nc(NC(=O)c4ccc5ncccc5c4)cn3n2)n1C` with CK1ε (Homo sapiens (Human), UniProt P49674).
Sequence (P49674 whole entry): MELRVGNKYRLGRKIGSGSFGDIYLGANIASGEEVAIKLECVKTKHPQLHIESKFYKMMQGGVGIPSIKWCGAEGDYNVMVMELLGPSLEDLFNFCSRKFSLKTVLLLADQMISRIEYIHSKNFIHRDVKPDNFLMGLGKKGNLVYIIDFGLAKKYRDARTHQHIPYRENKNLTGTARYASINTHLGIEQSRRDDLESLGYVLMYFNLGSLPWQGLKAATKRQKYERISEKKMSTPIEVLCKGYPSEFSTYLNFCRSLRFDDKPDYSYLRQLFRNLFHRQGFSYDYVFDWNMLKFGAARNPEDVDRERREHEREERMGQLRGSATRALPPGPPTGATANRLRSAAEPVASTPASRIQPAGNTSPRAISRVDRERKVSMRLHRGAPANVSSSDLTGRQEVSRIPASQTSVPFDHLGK
Ans: 2.2

Q: State measured IC50 of the compound `O=C(Nc1cn2nc(-c3c(-c4ccc(F)cc4)ncn3C3CCNCC3)ccc2n1)c1ccnc(N2CCOCC2)c1` with CK1ε (Homo sapiens (Human), UniProt P49674).
Ans: 3.12

====

pIC50 values for CK1ε (Homo sapiens (Human)), compiled from several publications.
# pIC50 = -log10(concentration in molar units)

Cn1nc(-c2ccc(F)cc2)c(-c2ccc3nc(NC(=O)c4ccnc(F)c4)cn3n2)c1N1CCNCC1; 8.64
Cc1ccc(-c2nc3ccc(N4CCNCC4)nn3c2-c2ccncc2)s1; 7.06
Cc1nc(-c2cccnc2)sc1C(=O)Nc1cn2nc(-c3c(-c4ccc(F)cc4)nn(C)c3C3CCN(C)CC3)ccc2n1; 8.40

// next item, pIC50 requested
Q: Retrieve pIC50 on CK1ε (Homo sapiens (Human)); query `Cn1ccc(C(=O)N2CCC(n3cnc(-c4ccc(F)cc4)c3-c3ccc4nc(NC(=O)c5ccnc(F)c5)cn4n3)CC2)n1`
Ans: 9.26

====

Here, compounds appear alongside IC50 reported for CK1ε (Homo sapiens (Human)) in the literature.

For orientation, consider the following solved cases.
COc1cccc(-c2c(C(N)=O)c3n(c2C2CC2)CCN(C(=O)NC(C)(C)C)C3)c1; 1 to 7 nM
Cc1nc(-c2cccnc2)sc1C(=O)Nc1cn2nc(-c3c(-c4ccc(F)cc4)ncn3C3CN(C)C3)ccc2n1; 8.64 nM
COCCn1cnc(-c2ccc(F)cc2)c1-c1ccc2nc(NC(=O)c3ccnc(F)c3)cn2n1; 1.17 nM
Cn1cc(-c2ccc3nc(NC(=O)c4ccc(F)cc4)cn3n2)c(-c2ccc(F)cc2)n1; 28.1 nM
O=C(Nc1cn2nc(-c3c(-c4ccc(F)cc4)nc4n3CCOC4)ccc2n1)c1ccnc(N2CCOCC2)c1; 6.9 nM

// below: IC50 requested for another compound
Q: Using the record for `O=C(Nc1cn2nc(-c3c(-c4ccc(F)cc4)ncn3C3CCN(C(=O)CCC(F)(F)F)CC3)ccc2n1)c1ccnc(F)c1` , state its measured IC50.
Ans: 1.97 nM

====

Field: pIC50. System: CK1ε (Homo sapiens (Human), UniProt P49674). Provenance: assorted publications.
Conceptually, pIC50 converts a concentration in mol/L into minus its log10.

Take a look at these entries with their results.
O=C(Nc1cn2nc(-c3c(-c4ccc(F)cc4)ncn3C3CCN(C(=O)CC(F)(F)F)CC3)ccc2n1)c1cncs1; 9.37
CC(C)(C)NC(=O)N1CCn2c(c(C(N)=O)c(-c3ccc(C#N)cc3)c2C2CC2)C1; 7.60
O=C(Nc1cn2nc(-c3c(-c4ccc(F)cc4)ncn3C3CCOCC3)ccc2n1)c1cc(F)nc(F)c1; 8.92

Q: // fetch pIC50 for `CSCCCN1CCC(n2cnc(-c3ccc(F)cc3)c2-c2ccc3nc(NC(=O)c4ccnc(F)c4)cn3n2)CC1` ; system: CK1ε (Homo sapiens (Human), UniProt P49674)
Ans: 8.65

Q: Please respond with reported pIC50 (system CK1ε (Homo sapiens (Human), UniProt P49674)) for `COc1c(F)cc(C(=O)Nc2cn3nc(-c4cn(C)nc4-c4ccc(F)cc4)ccc3n2)cc1F` .
Ans: 7.73

Q: Enter pIC50 (test system CK1ε (Homo sapiens (Human), UniProt P49674)) for `O=C(Nc1cn2nc(-c3c(-c4ccc(F)cc4)ncn3CCCn3ccnc3)ccc2n1)c1ccnc(F)c1`
Ans: 8.27

Q: For CK1ε (Homo sapiens (Human), UniProt P49674), give pIC50 of the listed compound: `N#Cc1ccc(C(=O)Nc2cn3nc(-c4c(-c5ccc(F)cc5)nc5ccccn45)ccc3n2)cn1`
Ans: 8.42

Q: Report pIC50 on CK1ε (Homo sapiens (Human), UniProt P49674) for this entry: `O=C(Nc1cn2nc(-c3c(-c4ccc(F)cc4)ncn3CCN3CCOCC3)ccc2n1)c1cc(F)nc(F)c1`
Ans: 8.62
